# Test system: ST8814
# Assay overview: drug sensitivity score (DSS, CellTox-Green cytotoxicity, 72 h) (DSS (dimensionless)); higher = more cytotoxic; extreme values may be limits of the assay
Property measured: drug sensitivity score
API note: the answer field is a bare number with no unit suffix.

The compound C[C@@]1(C(=O)Nc2ccc(F)nc2)CCCN1c1nc(Nc2cc(C3CC3)n[nH]2)c2cccn2n1 (max concentration tested 10000 nM) showed drug sensitivity score equal to 13

Record COc1ccc(-c2cc3c(C)nc(N)nc3n([C@H]3CC[C@H](OCCO)CC3)c2=O)cn1 (max concentration tested 10000 nM) . Reported drug sensitivity score: 6.06

Per the records, this compound ( COc1cc2ncnc(Nc3ccc(F)c(Cl)c3)c2cc1NC(=O)/C=C/CN1CCCCC1 [Dacomitinib] (max concentration tested 1000 nM) ) has drug sensitivity score equal to 0

Measured drug sensitivity score of O=c1[nH]cc(F)c(=O)[nH]1 [Fluorouracil] (max concentration tested 10000 nM) : 0

Recorded drug sensitivity score (compound C=CCc1cccc(/C=N/NC(=O)CN2CCN(Cc3ccccc3)CC2)c1O [PAC-1] (max concentration tested 10000 nM) ): 0.202

What the record says about COc1cc(Nc2c(C#N)cnc3cc(OCCCN4CCN(C)CC4)c(OC)cc23)c(Cl)cc1Cl [Bosutinib] (max concentration tested 10000 nM) : drug sensitivity score is 7.01

----------
# Test system: HS-Sch-2
# Assay overview: drug sensitivity score (DSS, CellTiter-Glo viability, 72 h) (DSS (dimensionless)); higher = more sensitive; extreme values may be limits of the assay
Property measured: drug sensitivity score
Give the figure only, with no unit attached.

Hey, HS-Sch-2 data for CN(c1ccccc1CNc1nc(Nc2ccc3c(c2)CC(=O)N3)ncc1C(F)(F)F)S(C)(=O)=O (max concentration tested 10000 nM) : drug sensitivity score came out at 6.95

The recorded drug sensitivity score with HS-Sch-2 for Cc1ccccc1C(C(=O)NC1CCCCC1)N(C(=O)Cn1ccnc1C)c1cccc(F)c1 (stereo not given) [AGI-5198] (max concentration tested 10000 nM) was 0.6

Reading of drug sensitivity score for CN(c1ncccc1CNc1nc(Nc2ccc3c(c2)CC(=O)N3)ncc1C(F)(F)F)S(C)(=O)=O (max concentration tested 10000 nM) with HS-Sch-2: 5.18

Given the compound COc1ncc(-c2ccc3nccc(-c4ccnnc4)c3c2)cc1NS(=O)(=O)c1ccc(F)cc1F [Omipalisib] (max concentration tested 1000 nM) and test system HS-Sch-2, the measured drug sensitivity score is 9.45

Field drug sensitivity score (HS-Sch-2), entry C[C@@H](C(=O)O)c1ccc(-c2ccccc2)c(F)c1 [Tarenflurbil] (max concentration tested 10000 nM) : 0

Record CCN(CC)CCOc1ccc(/C(=C(/Cl)c2ccccc2)c2ccccc2)cc1 [Clomifene] (max concentration tested 10000 nM) ; system HS-Sch-2; drug sensitivity score = 5.21

HS-Sch-2 drug sensitivity score of CCOC(=O)CCNc1cc(N2CCc3ccccc3CC2)nc(-c2ccccn2)n1 [GSK-J4] (max concentration tested 100000 nM) is 15.9

Lab note: compound O=c1cc(N2CCOCC2)oc2c(-c3ccccc3)cccc12 (max concentration tested 100000 nM) tested on HS-Sch-2; recorded drug sensitivity score was 7.3

HS-Sch-2 data for Cc1c(Cn2c(C)nc3c(C(=O)O)cc(N4CCOCC4)cc32)cccc1C(F)(F)F (max concentration tested 10000 nM) ; its drug sensitivity score: 0

Record CN(C)c1cc2c(cc1Sc1nc3c(N)nccc3n1CCNCC(C)(C)C)OCO2 [CUDC-305] (max concentration tested 10000 nM) has HS-Sch-2 drug sensitivity score equal to 19.6

Fill in: HS-Sch-2 drug sensitivity score for CC(C)c1cc(C(=O)N2Cc3ccc(CN4CCN(C)CC4)cc3C2)c(O)cc1O [Onalespib] (max concentration tested 2500 nM) = 21.4

Tested system HS-Sch-2; drug sensitivity score recorded for CCOc1cc2ncc(C#N)c(Nc3ccc(F)c(Cl)c3)c2cc1NC(=O)/C=C/CN(C)C [Pelitinib] (max concentration tested 2500 nM) was 11

Entry COc1cc2c(N3CCN(C(=O)Nc4ccc(OC(C)C)cc4)CC3)ncnc2cc1OCCCN1CCCCC1 [Tandutinib] (max concentration tested 1000 nM) , tested on HS-Sch-2, has a reported drug sensitivity score of 0

GET /values?item= Cn1c(=O)n(-c2ccc(C(C)(C)C#N)cc2)c2c3cc(-c4cnc5ccccc5c4)ccc3ncc21 [Dactolisib] (max concentration tested 1000 nM) &system= HS-Sch-2 returns drug sensitivity score: 13.9

HS-Sch-2 assay, compound CCC1(c2ccc(N)cc2)CCC(=O)NC1=O (stereo not given) [Aminoglutethimide] (max concentration tested 10000 nM) , recorded drug sensitivity score = 0

Value source: the supplement of paper PMC5579334
